Target or system: NAMPT (Homo sapiens, UniProt P43490)
Construct: purchased Abcam ab221819
Sequence (P43490 whole entry): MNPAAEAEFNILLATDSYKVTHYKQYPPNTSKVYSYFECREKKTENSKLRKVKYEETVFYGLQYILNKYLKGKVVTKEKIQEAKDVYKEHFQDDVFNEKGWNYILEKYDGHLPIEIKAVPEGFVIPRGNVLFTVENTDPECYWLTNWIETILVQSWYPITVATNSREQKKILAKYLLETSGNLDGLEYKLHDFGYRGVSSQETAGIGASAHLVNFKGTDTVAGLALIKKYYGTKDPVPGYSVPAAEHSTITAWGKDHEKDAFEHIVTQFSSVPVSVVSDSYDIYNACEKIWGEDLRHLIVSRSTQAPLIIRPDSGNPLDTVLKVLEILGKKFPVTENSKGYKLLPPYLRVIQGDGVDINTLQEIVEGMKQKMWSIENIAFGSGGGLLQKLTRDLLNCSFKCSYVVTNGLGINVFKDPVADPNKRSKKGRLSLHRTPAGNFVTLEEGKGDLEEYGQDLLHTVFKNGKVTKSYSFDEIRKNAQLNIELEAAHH
Assay comment: NAMPT Activity Assay (Abcam #ab221819)
Format: biochemical
Test context: purified NAMPT, percent inhibition from OD450 nm; compound concentration not given
Quantity: NAMPT Inhibition Code*

INSERT INTO assay_data (compound, result) VALUES
  ('COC(=O)c1cc(-c2ccc(C(=O)NCCCc3cn[nH]c3)cn2)ccc1N(CC1CC1)C(C)=O [I-T2298]', 'C (C = ≥66% inhibition)'),
  ('CC(=O)N(CC1CC1)c1ccc(-c2ccc(C(=O)NCc3nccs3)cn2)cc1Cl [I-T2356]', 'A (*A = <33% inhibition)'),
  ('CC(=O)N(CC1CC1)c1ccc(-c2ccc(C(=O)Nc3cnc4nccn4c3)cn2)cc1Cl [I-T2140]', 'C (C = ≥66% inhibition)'),
  ('CC(=O)N(CC1CC1)c1ccc(-c2ccc(C(=O)NCC3CC(F)(F)C3)cn2)cc1Cl [I-T2345]', 'A (*A = <33% inhibition)'),
  ('CC(=O)N(CC1CC1)c1ccc(-c2ccc(C(=O)NCc3ccc(C(F)F)nc3)cn2)cc1Cl [I-T2397]', 'C (C = ≥66% inhibition)'),
  ('CC(=O)N(CC1CC1)c1ccc(-c2ccc(C(=O)NCc3c[nH]cn3)cn2)cc1Cl [I-T2151]', 'A (*A = <33% inhibition)');
